- systemTested: human M2 receptor (Homo sapiens)
- Type: cell-based
- conditionContext: shift in the acetylcholine dose-response curve (Allosteric EC50 shift, GraphPad PRISM); α >1 = positive cooperativity
Binary call on Cooperativity (alpha factor): 1 from 30 upward, 0 beneath that.

Past entries and their recorded results:
molecule	systemTested	classLabel
O=C(NC(c1ccccc1Cl)C(F)(F)F)c1cn(-c2ccccc2F)c2nc(N3CCC(O)C3=O)ccc2c1=O (single isomer, unassigned) [Example 288]	human M2 receptor (Homo sapiens)	0
O=C(NC(c1c(F)cccc1F)C(F)(F)F)c1cn(-c2ccc(F)cc2F)c2nc(N3CCCC(O)C3=O)ccc2c1=O (single isomer, unassigned)	human M2 receptor (Homo sapiens)	0
O=C(NC(COC(F)(F)F)c1ccccc1)c1cn(-c2ccc(F)cc2F)c2nc(N3C[C@@H](O)CC3=O)ccc2c1=O (mixture of isomers)	human M2 receptor (Homo sapiens)	1
CC[C@@H](NC(=O)c1cn(-c2ccc(F)cc2F)c2nc(N3C[C@@H](O)CC3=O)ccc2c1=O)C(F)(F)F	human M2 receptor (Homo sapiens)	1
CN(C)c1ccc2c(=O)c(C(=O)NCc3c(F)cccc3C(F)(F)F)cn(-c3ccc(F)cc3F)c2n1	human M2 receptor (Homo sapiens)	0

Turning now to a further molecule:
Challenge: Given CC[C@@H](NC(=O)c1cn(-c2ccc(F)cc2F)c2nc(N3C[C@@H]4C(COC)[C@@H]4C3)ccc2c1=O)C(F)(F)F (stereo partly drawn) , state whether its Cooperativity (alpha factor) is at least 30.
Response given: 0

###

pEC50 values by entry
- systemTested: human M2 receptor (Homo sapiens, UniProt P08172)
- Sequence (P08172 1-466): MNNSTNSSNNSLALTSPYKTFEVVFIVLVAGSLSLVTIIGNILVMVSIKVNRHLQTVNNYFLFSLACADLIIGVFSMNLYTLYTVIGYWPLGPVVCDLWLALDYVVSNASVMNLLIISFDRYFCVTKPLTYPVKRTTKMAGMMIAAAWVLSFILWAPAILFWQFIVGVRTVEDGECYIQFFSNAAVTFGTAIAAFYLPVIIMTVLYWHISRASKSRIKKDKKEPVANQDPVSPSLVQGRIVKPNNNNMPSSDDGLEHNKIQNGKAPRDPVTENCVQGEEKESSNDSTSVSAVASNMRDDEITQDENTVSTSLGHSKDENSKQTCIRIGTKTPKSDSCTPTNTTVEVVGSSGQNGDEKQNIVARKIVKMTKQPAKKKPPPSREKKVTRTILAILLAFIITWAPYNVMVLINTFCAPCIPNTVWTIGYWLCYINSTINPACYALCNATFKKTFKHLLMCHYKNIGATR
- conditionContext: Receptor activity EC50, allosteric potency at EC20 acetylcholine; M2-GIRK1/4 reporter cells; in some cases mean of two or more determinations
Units for pEC50: none; it is -log10 of a concentration expressed in mol/L.

Consider the reported pEC50 for these molecules:
molecule	systemTested	measure	numericValue
O=C(N[C@@H](C1CC1)C(F)(F)F)c1cn(-c2c(F)cc(F)cc2F)c2nc(N3C[C@@H](C(=O)O)OC3=O)ccc2c1=O	human M2 receptor (Homo sapiens, UniProt P08172)	pEC50	5.41
CCC1CCN(c2ccc3c(=O)c(C(=O)N[C@@H](C4CC4)C(F)(F)F)cn(-c4c(F)cc(F)cc4F)c3n2)C(=O)N1 (single isomer, unassigned) [Example 447]	human M2 receptor (Homo sapiens, UniProt P08172)	pEC50	7.62
CC[C@H](NC(=O)c1cn(-c2c(F)cc(F)cc2F)c2nc(N3CCN(C)CC3)ccc2c1=O)C(F)(F)F	human M2 receptor (Homo sapiens, UniProt P08172)	pEC50	7.17
CC[C@H](NC(=O)c1cn(-c2c(F)cc(F)cc2F)c2nc(N(C)C[C@@H](C)O)ccc2c1=O)C(F)(F)F	human M2 receptor (Homo sapiens, UniProt P08172)	pEC50	7.51
CC(C)C[C@@H](NC(=O)c1cn(-c2c(F)cc(F)cc2F)c2nc(N3C[C@@H](O)CC3=O)ccc2c1=O)C(F)(F)F	human M2 receptor (Homo sapiens, UniProt P08172)	pEC50	8.22

Challenge: Requested read-out: pEC50. Entry: "CN1CCN(c2ccc3c(=O)c(C(=O)N[C@@H](C4CC4)C(F)(F)F)cn(-c4c(F)cc(F)cc4F)c3n2)CC1"
Response given: 6.99

Challenge: Requested read-out: pEC50. Entry: O=C(NC(CC(F)(F)F)C(F)(F)F)c1cn(-c2c(F)cc(F)cc2F)c2nc(N3CCNC3=O)ccc2c1=O (racemic) [Example 586]
Response given: 7.82

Challenge: Requested read-out: pEC50. Entry: "O=C(N[C@@H](C1CC1)C(F)(F)F)c1cn(-c2c(F)cc(F)cc2F)c2nc(N3CCC(CO)(CO)CC3)ccc2c1=O"
Response given: 7.57

Challenge: Requested read-out: pEC50. Entry: "O=C(NC1(CC(F)(F)F)CC1)c1cn(-c2c(F)cc(F)cc2F)c2nc(N3C[C@@H](O)CC3=O)ccc2c1=O"
Response given: 7.31

Challenge: Requested read-out: pEC50. Entry: CC(NC(=O)c1cn(-c2c(F)cc(F)cc2F)c2nc(N3C[C@@H](O)CC3=O)ccc2c1=O)(C1CC1)C(F)(F)F (single isomer, unassigned) [Example 510]
Response given: 8.22

Challenge: Requested read-out: pEC50. Entry: "CC(C)(NC(=O)c1cn(-c2c(F)cc(F)cc2F)c2nc(N3C[C@@H](O)[C@H](O)C3)ccc2c1=O)C(F)(F)F"
Response given: 7.49

Challenge: Requested read-out: pEC50. Entry: CC(C)C(NC(=O)c1cn(-c2c(F)cc(F)cc2F)c2nc(N3CCNC3=O)ccc2c1=O)C(F)(F)F (racemic) [Example 538]
Response given: 8.15

Challenge: Requested read-out: pEC50. Entry: "CC[C@H](NC(=O)c1cn(-c2c(F)cc(F)cc2F)c2nc(N3CC(F)C3)ccc2c1=O)C(F)(F)F"
Response given: 7.24

Challenge: Requested read-out: pEC50. Entry: "CC(C)C[C@@H](NC(=O)c1cn(-c2c(F)cc(F)cc2F)c2nc(N3C[C@@H](O)[C@@H](O)C3)ccc2c1=O)C(F)(F)F"
Response given: 7.92

Challenge: Requested read-out: pEC50. Entry: O=C(N[C@@H](C1CC1)C(F)(F)F)c1cn(-c2c(F)cc(F)cc2F)c2nc(N3CC[C@@H](O)[C@H](O)C3)ccc2c1=O (single isomer, unassigned) [Example 616]
Response given: 7.43

Challenge: Requested read-out: pEC50. Entry: CC(NC(=O)c1cn(-c2c(F)cc(F)cc2F)c2nc(N3C[C@@H](O)CC3=O)ccc2c1=O)(C1CC1)C(F)(F)F (single isomer, unassigned) [Example 509]
Response given: 8.15

Challenge: Requested read-out: pEC50. Entry: CCC(NC(=O)c1cn(-c2ccc(F)cc2F)c2nc(N3C[C@@H](O)CC3=O)ccc2c1=O)C(F)(F)C(F)(F)F (single isomer, unassigned) [Example 557]
Response given: 7.96

Challenge: Requested read-out: pEC50. Entry: "CC(C)(C)NC(=O)c1cn(-c2c(F)cc(F)cc2F)c2nc(N3C[C@@H](O)CC3=O)ccc2c1=O"
Response given: 7.70

Challenge: Requested read-out: pEC50. Entry: "CC(C)C[C@H](NC(=O)c1cn(-c2c(F)cc(F)cc2F)c2nc(N3C[C@@H](O)CC3=O)ccc2c1=O)C(F)(F)F"
Response given: 8.30
